Quick reference: melting point of the listed items.
observedProperty: melting point

>>> endpointvalue("CC1(C)CCc2cc3c(cc2N1)CCNCC3")
"270 to 273 °C"
>>> endpointvalue("O=C(O)/C=C/C(=O)O.c1c2c(c(C3CC3)c3c1OCCN3CC1CCCOC1)CCNCC2 (stereo not shown)")
"186 to 189 °C"
>>> endpointvalue("COc1cccc(CCOC(=O)N2CCOc3cc4c(cc32)CCNCC4)c1.O=C(O)CCC(=O)O")
"134 to 136 °C"
>>> endpointvalue("COc1ccc(F)cc1CN1CCOc2cc3c(c(C4CC4)c21)CCNCC3.O=C(O)/C=C/C(=O)O")
"189 to 192 °C"
>>> endpointvalue("O=C(O)/C=C/C(=O)O.c1ccc(N2CCOc3cc4c(cc32)CCNCC4)cc1")
"220 to 222 °C"
>>> endpointvalue("CC(=O)N1CCCc2cc3c(cc21)CCNCC3.O=C(O)/C=C/C(=O)O")
"159 to 162 °C"
>>> endpointvalue("COCCN1C(=O)C(C)(C)Oc2cc3c(cc21)CCNCC3.O=C(O)/C=C/C(=O)O")
"175 to 176 °C"
>>> endpointvalue("CCN1CCCc2cc3c(c(Cl)c21)CCNCC3.Cl")
"221 to 223 °C"
>>> endpointvalue("CCOC(=O)N1CCOc2c1cc1c(c2Cl)CCNCC1.O=C(O)CCC(=O)O")
"145 to 147 °C"
>>> endpointvalue("Cc1c2c(cc3c1N(CCCF)CCO3)CCNCC2.O=C(O)/C=C/C(=O)O")
"187 to 190 °C"
>>> endpointvalue("CCOCc1cc(F)c(OCCN2CCOc3cc4c(c(C5CC5)c32)CCNCC4)c(F)c1.O=C(O)/C=C/C(=O)O")
"138 to 139 °C"
>>> endpointvalue("CCCc1c2c(cc3c1OCCN3C(=O)OCCc1ccccc1)CCNCC2.O=C(O)/C=C/C(=O)O")
"134 to 136 °C"
>>> endpointvalue("CC(C)COC(=O)N1CCCc2cc3c(cc21)CCNCC3.Cl")
"202 to 207 °C"
>>> endpointvalue("O=C(O)/C=C/C(=O)O.OCCN1CCOc2cc3c(c(C4CC4)c21)CCNCC3")
"146 to 150 °C"
>>> endpointvalue("Cc1cccc(CN2CCOc3cc4c(c(C5CC5)c32)CCNCC4)c1.O=C(O)/C=C/C(=O)O")
"192 to 195 °C"
>>> endpointvalue("O=C(O)CCC(=O)O.O=C1COc2cc3c(cc2N1Cc1cccc(Cl)c1)CCNCC3")
"192 to 194 °C"
>>> endpointvalue("Clc1ccccc1CN1CCOc2cc3c(c(C4CC4)c21)CCNCC3.O=C(O)CCC(=O)O")
"106 to 109 °C"
>>> endpointvalue("COCc1cccc(CN2CCOc3cc4c(c(C5CC5)c32)CCNCC4)c1.O=C(O)/C=C/C(=O)O")
"190 to 193 °C"
>>> endpointvalue("CCNC(=O)N1CCCc2cc3c(cc21)CCNCC3.O=C(O)/C=C/C(=O)O")
"174 to 176 °C"

###

assayedSystem: human 5-HT2C receptor (Homo sapiens)
Construct: expressed in transfected cells
Sequence (P28335 33-458): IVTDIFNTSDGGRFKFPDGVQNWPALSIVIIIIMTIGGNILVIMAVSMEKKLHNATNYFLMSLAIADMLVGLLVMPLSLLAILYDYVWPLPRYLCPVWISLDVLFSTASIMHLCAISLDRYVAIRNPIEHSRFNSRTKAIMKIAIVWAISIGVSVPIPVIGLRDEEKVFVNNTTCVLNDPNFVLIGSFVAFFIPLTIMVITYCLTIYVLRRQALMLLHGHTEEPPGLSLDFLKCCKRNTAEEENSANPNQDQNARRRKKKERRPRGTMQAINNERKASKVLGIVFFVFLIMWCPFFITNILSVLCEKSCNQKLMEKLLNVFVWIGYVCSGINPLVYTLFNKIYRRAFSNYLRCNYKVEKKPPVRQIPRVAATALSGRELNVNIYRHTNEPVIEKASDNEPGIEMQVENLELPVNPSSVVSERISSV
measurementNotes: Evaluation of 5-HT2C receptor agonist activity (intracellular calcium increase, FLIPR, CHO cells stably expressing the receptor)
Format: cell-based
conditionNotes: CHO, read-out: 5-HT2C agonist activity Emax
Method: The agonist activity of the compound of the formula (I) on the 5-HT2C receptor was confirmed by the method shown below. The human 5-HT2C receptor agonist activity was evaluated by measuring the increase of the ligand-dependent intracellular calcium concentration. CHO cells which stably expressing a human 5-HT2C receptor were used. […] The difference between a maximum value and a minimum value in the change of the intracellular Ca concentration was determined and kept as measurement data. […]
Quick reference: Emax of the listed items.
observedProperty: Emax (%)

>>> endpointvalue("O=C(O)/C=C/C(=O)O.c1ccc2c(c1)OCC(CN1CCOc3cc4c(c(C5CC5)c31)CCNCC4)O2 (stereo not shown) [Example 267]")
99
>>> endpointvalue("CC(=O)N1CCCc2cc3c(cc21)CCNCC3.O=C(O)/C=C/C(=O)O [Example 33]")
94
>>> endpointvalue("CCOC(=O)N1CCCc2cc3c(c(C)c21)CCNCC3.O=C(O)C(=O)O [Example 108]")
106
>>> endpointvalue("CC(C)CN1CCCc2cc3c(c(Cl)c21)CCNCC3.O=C(O)/C=C/C(=O)O [Example 2, monofumarate]")
99
>>> endpointvalue("COCCN1CCCc2cc3c(c(C4CC4)c21)CCNCC3 [Example 81]")
114
>>> endpointvalue("CC(C)C(=O)N1CCCc2cc3c(c(Cl)c21)CCNCC3.Cl [Example 21]")
101
>>> endpointvalue("Cc1ccccc1CN1CCOc2cc3c(c(C4CC4)c21)CCNCC3.O=C(O)/C=C/C(=O)O [Example 276]")
104
>>> endpointvalue("Fc1ccc(F)c(CN2CCOc3cc4c(c(C5CC5)c32)CCNCC4)c1 [Example 283]")
90
>>> endpointvalue("COCCCN1CCOc2cc3c(c(C4CC4)c21)CCNCC3.O=C(O)/C=C/C(=O)O [Example 106]")
112
>>> endpointvalue("COCCN1CCOc2cc3c(c(Br)c21)CCNCC3 [Example 135]")
112
>>> endpointvalue("COCCN1c2c(cc3c(c2C2CC2)CCNCC3)OC[C@@H]1C [Example 292]")
93
>>> endpointvalue("c1ccc(OCCN2CCOc3cc4c(c(C5CC5)c32)CCNCC4)cc1 [Example 268]")
99
>>> endpointvalue("c1c2c(c(C3CC3)c3c1OCCN3C[C@@H]1CCCO1)CCNCC2 [Example 215]")
96
>>> endpointvalue("Fc1cc(F)cc(CN2CCOc3cc4c(c(C5CC5)c32)CCNCC4)c1.O=C(O)/C=C/C(=O)O [Example 313]")
97
>>> endpointvalue("COCCN1CCOc2cc3c(c(C4CC4)c21)CCNCC3 [Example 88]")
105
>>> endpointvalue("N#Cc1cc(F)c(OCCN2CCOc3cc4c(c(C5CC5)c32)CCNCC4)c(F)c1 [Example 297]")
96
>>> endpointvalue("CN1CCOc2cc3c(c(Br)c21)CCNCC3.O=C(O)/C=C/C(=O)O [Example 35]")
100
>>> endpointvalue("CCN1CCCc2cc3c(c(Cl)c21)CCNCC3.Cl [Example 16]")
109
>>> endpointvalue("O=C(O)/C=C/C(=O)O.c1c2c(c(C3CC3)c3c1OCCN3CC1CCCOC1)CCNCC2 (stereo not shown) [Example 263]")
96
>>> endpointvalue("Fc1ccc(Cl)cc1CN1CCOc2cc3c(c(C4CC4)c21)CCNCC3.O=C(O)/C=C/C(=O)O [Example 290]")
93
>>> endpointvalue("Fc1ccccc1CN1CCOc2cc3c(c(C4CC4)c21)CCNCC3.O=C(O)/C=C/C(=O)O [Example 265]")
97
>>> endpointvalue("Clc1c2c(cc3c1N(CC1CCCC1)CCC3)CCNCC2 [Example 45]")
107
>>> endpointvalue("COCCN1CCOc2cc3c(c(-c4cccc(C)c4)c21)CCNCC3.O=C(O)/C=C/C(=O)O [Example 78]")
98
>>> endpointvalue("CC(C)CN1CCCc2cc3c(cc21)CCNCC3 [Example 38]")
94
>>> endpointvalue("O=C(O)/C=C/C(=O)O.c1ccc(N2CCOc3cc4c(cc32)CCNCC4)cc1 [Example 92]")
84
>>> endpointvalue("O=C(O)/C=C/C(=O)O.c1cc2c(cc1CN1CCOc3cc4c(c(C5CC5)c31)CCNCC4)OCCO2 [Example 291]")
93
>>> endpointvalue("CCc1c2c(cc3c1N(CCOC)CCO3)CCNCC2.O=C(O)/C=C/C(=O)O [Example 98]")
107
>>> endpointvalue("COCc1cccc(CN2CCOc3cc4c(c(C5CC5)c32)CCNCC4)c1.O=C(O)/C=C/C(=O)O [Example 288]")
90
>>> endpointvalue("COc1cccc(CN2CCOc3cc4c(c(C5CC5)c32)CCNCC4)c1 [Example 299]")
98
>>> endpointvalue("CCOCCN1CCOc2cc3c(c(C4CC4)c21)CCNCC3.O=C(O)/C=C/C(=O)O [Example 104]")
107
>>> endpointvalue("CCO[C@H](C)CN1CCOc2cc3c(c(C4CC4)c21)CCNCC3.O=C(O)/C=C/C(=O)O [Example 315]")
108
>>> endpointvalue("CO[C@H](C)CN1CCOc2cc3c(c(C4CC4)c21)CCNCC3.O=C(O)/C=C/C(=O)O [Example 243]")
96
>>> endpointvalue("Clc1cccc(CN2CCOc3cc4c(c(C5CC5)c32)CCNCC4)c1.O=C(O)CCC(=O)O [Example 258]")
97
>>> endpointvalue("Cc1cccc(CN2CCOc3cc4c(c(C5CC5)c32)CCNCC4)c1.O=C(O)/C=C/C(=O)O [Example 277]")
95
